- System Name: AR protein (Homo sapiens)
- Construct: endogenous in cells; host or cells: VCaP
- Sequence (P10275 whole entry): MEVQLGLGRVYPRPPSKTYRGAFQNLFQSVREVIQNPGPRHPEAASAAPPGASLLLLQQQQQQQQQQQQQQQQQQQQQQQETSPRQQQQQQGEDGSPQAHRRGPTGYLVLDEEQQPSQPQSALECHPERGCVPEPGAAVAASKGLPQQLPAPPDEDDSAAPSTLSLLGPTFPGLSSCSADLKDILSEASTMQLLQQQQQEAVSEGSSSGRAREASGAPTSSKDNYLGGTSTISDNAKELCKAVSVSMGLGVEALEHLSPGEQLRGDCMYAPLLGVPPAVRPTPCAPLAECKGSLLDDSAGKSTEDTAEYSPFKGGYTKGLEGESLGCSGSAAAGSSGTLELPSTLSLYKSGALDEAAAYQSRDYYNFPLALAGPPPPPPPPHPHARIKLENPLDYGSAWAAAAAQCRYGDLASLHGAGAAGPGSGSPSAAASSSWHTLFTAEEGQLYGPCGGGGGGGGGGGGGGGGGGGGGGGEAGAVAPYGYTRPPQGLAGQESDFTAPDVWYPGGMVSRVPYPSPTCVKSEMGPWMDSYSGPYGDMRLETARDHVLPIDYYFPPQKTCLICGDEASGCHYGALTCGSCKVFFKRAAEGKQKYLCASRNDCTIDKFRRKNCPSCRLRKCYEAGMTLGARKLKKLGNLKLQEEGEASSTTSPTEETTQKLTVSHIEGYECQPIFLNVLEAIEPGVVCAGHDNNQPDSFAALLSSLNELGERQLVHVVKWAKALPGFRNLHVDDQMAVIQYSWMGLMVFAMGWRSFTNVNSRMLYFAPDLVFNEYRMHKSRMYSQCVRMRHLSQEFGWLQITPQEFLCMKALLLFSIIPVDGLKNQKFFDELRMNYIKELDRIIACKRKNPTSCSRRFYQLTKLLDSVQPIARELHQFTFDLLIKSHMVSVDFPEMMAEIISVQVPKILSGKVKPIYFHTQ
- Experiment Summary: Western blotting of AR protein degradation in VCaP cells
- Type: cell-based
- Condition Parameters: 0.01 μM
- Procedure: The treated cells were lysed with RIPA buffer. […] GAPDH was used as a loading control. Bands were quantified with ImageJ software. The relative numbers of each band obtained from normalization with its corresponding GAPDH level were compared with Prism 8 software. The DC50 values were produced from Prism 8, and the DC90 values were calculated with an equation=Bottom+(Top−Bottom)/(1+10^((Log EC50−X)*HillSlope) based on DC50 and Hillslope values.
Quantity Name: % AR protein degradation in VCaP Cells (%)
Give bare numbers, in %.

Count: 3. Required value per item: % AR protein degradation in VCaP Cells.
1. CC(O)(CS(=O)(=O)c1ccc(N2CCN(C3CCN(c4ccc5c(c4)C(=O)N(C4CCC(=O)NC4=O)C5=O)CC3)CC2)cc1)C(=O)Nc1ccc(C#N)c(C(F)(F)F)c1 (stereo not drawn)
2. N#Cc1ccc(O[C@H]2CC[C@H](NC(=O)c3ccc(NCCCCNc4ccc5c(c4)C(=O)N(C4CCC(=O)NC4=O)C5=O)cc3)CC2)cc1Cl (stereo partly drawn)
3. N#Cc1ccc(O[C@H]2CC[C@H](NC(=O)c3ccc(N4CCN(C5CCN(c6ccc7c(c6)C(=O)N(C6CCC(=O)NC6=O)C7=O)CC5)CC4)cc3)CC2)cc1Cl (stereo partly drawn)

a:
[13, 70, 59]

* * *

- Experiment Summary: PK parameters in male mice (Table 9)
- Format: in vivo
- Condition Parameters: ICR, mouse, in vivo, PO 5 mg/kg, read-out: Tmax
Quantity Name: Tmax (h)
One number for each entry, in h.

q: I'd like to know its Tmax. The compound in question is N#Cc1ccc(O[C@H]2CC[C@H](NC(=O)c3ccc(N4CCN(C5CN(c6ccc7c(c6)C(=O)N(C6CCC(=O)NC6=O)C7=O)C5)CC4)cc3)CC2)cc1Cl (stereo partly shown)
a: 2

* * *

Hi there, I'd appreciate the recorded Cmax for every entry that follows.
- Experiment Summary: PK parameters in male SD rats
- Assay type: in vivo
- Condition Parameters: rat, in vivo, PO 5 mg/kg
One number for each entry, in ng/mL.

1) CC1(C)[C@H](NC(=O)c2ccc(N3CCN(C4CN(c5ccc6c(c5)C(=O)N(C5CCC(=O)NC5=O)C6=O)C4)CC3)cc2)C(C)(C)[C@H]1Oc1ccc(C#N)c(Cl)c1 (some centres unmarked)	414

# ---- query molecule ----
q: Cmax for CC1(C)[C@H](NC(=O)c2ccc(N3CCN(C4CCN(c5ccc6c(c5)C(=O)N(C5CCC(=O)NC5=O)C6=O)CC4)CC3)cc2)C(C)(C)[C@H]1Oc1ccc(C#N)c(Cl)c1 (some centres unmarked) ?
a: 100

* * *

- System Name: AR protein (Homo sapiens)
- Construct: endogenous in cells; host or cells: VCaP
- Experiment Summary: Western blotting of AR protein degradation in VCaP cells
- Format: cell-based
- Condition Parameters: 0.001 μM
Quantity Name: % AR protein degradation in VCaP Cells

Solved entries (count: 3):
1) CC1(C)C(=O)N(c2ccc(C#N)c(C(F)(F)F)c2)C(=S)N1c1ccc(C(=O)N2CCN(C3CCN(c4ccc5c(c4)C(=O)N(C4CCC(=O)NC4=O)C5=O)CC3)CC2)c(F)c1 (centres unmarked)	14%
2) N#Cc1ccc(O[C@@H]2CCC[C@@H](NC(=O)c3ccc(N4CCC(N5CCN(c6ccc7c(c6)C(=O)N(C6CCC(=O)NC6=O)C7=O)CC5)CC4)cc3)CC2)cc1Cl (some centres unmarked)	22%
3) CN(c1ccc(C#N)c(Cl)c1)[C@H]1CC[C@H](NC(=O)c2ccc(N3CCN(C4CN(c5ccc6c(c5)C(=O)N(C5CCC(=O)NC5=O)C6=O)C4)CC3)cc2)CC1 (some centres unmarked)	78%

Hi there! I need % AR protein degradation in VCaP Cells for each item below, if you can.
1. N#Cc1ccc(O[C@H]2CC[C@H](NC(=O)c3ccc(N4CCC(N5CCN(c6ccc7c(c6)C(=O)N(C6CCC(=O)NC6=O)C7=O)CC5)CC4)cc3)C2)cc1Cl (some centres unmarked)
2. N#Cc1ccc(O[C@H]2CC[C@H](NC(=O)c3ccc(NCCCCCCCNc4ccc5c(c4)C(=O)N(C4CCC(=O)NC4=O)C5=O)cc3)CC2)cc1Cl (some centres unmarked)

a:
1: 2%; 2: 17%
